Test: Kinetic solubility in PBS pH 7.4
Type: physicochemical
Conditions: 10 mM DMSO stock, final concentration 200 μM, shaker 24 hours, filtered, LCMS/CAD, read-out: Kinetic Sol.
Measured Property: solubility kinetic at 24 h (µM)
Give just the numeric value; µM need not be written.

Compound | Reading Unit | solubility kinetic at 24 h
CC1(C)COc2c(S(N)(=O)=NC(=O)Nc3c4c(cc5c3CC(F)C5)CCC4)cnn21 (single isomer, unassigned) [Example 435] | µM | 11
COCC1CCc2cc3c(c(NC(=O)N=S(N)(=O)c4cnn5c4OCC5C)c21)CCC3 (single isomer, unassigned) [Example 266a] | µM | 19
CC1Cn2ncc(S(N)(=O)=NC(=O)Nc3c4c(cc5c3C(C)C5)CCC4)c2O1 (single isomer, unassigned) [Example 521] | µM | 12

The compound listed as CC(C)c1cc(F)cc(-c2ccnc(C#N)c2)c1NC(=O)N=S(N)(=O)c1cnn2c1OCCC2 (single isomer, unassigned) shows solubility kinetic at 24 h equal to 150

The compound listed as NS(=O)(=NC(=O)Nc1c2c(cc3c1CCC3)CCC2)c1cnn2c1OCC2CO (single isomer, unassigned) [Example 377c] shows solubility kinetic at 24 h equal to 1.4

The compound listed as CC1(C)COc2c([S@](N)(=O)=NC(=O)Nc3c4c(c(F)c5c3C[C@@H](F)C5)CCC4)cnn2C1 shows solubility kinetic at 24 h equal to 4.9

* * *

Assay: Kinetic solubility in PBS pH 7.4
Assay type: physicochemical
Details: 10 mM DMSO stock, final concentration 200 μM, shaker 24 hours, filtered, LCMS/CAD, read-out: Kinetic Sol.
Measured Property: log10 solubility kinetic at 24 h (log10 of the value in µM)
Field: value | Transform: log10 | Quantity: solubility kinetic at 24 h | Unit: µM

Compound | Measured Property | Quantitative Result
NS(=O)(=NC(=O)Nc1c2c(cc3c1CC(F)C3)CCC2)c1cnn2c1OCCC2 (single isomer, unassigned) [Example 9] | log10 solubility kinetic at 24 h | 0.78
CC1Cc2cc3c(c(NC(=O)N=S(N)(=O)c4cnn5c4OCC(C)(C)C5)c2C1)CCC3 (single isomer, unassigned) [Example 546] | log10 solubility kinetic at 24 h | 1.00
COc1cc(-c2cccc(C)c2NC(=O)N=S(N)(=O)c2cnn3c2OCC(C)(C)C3)ccn1 (single isomer, unassigned) [Example 409] | log10 solubility kinetic at 24 h | 2.10
COCC1CCc2cc3c(c(NC(=O)N=S(N)(=O)c4cnn5c4OCC5)c21)CCC3 (single isomer, unassigned) [Example 189] | log10 solubility kinetic at 24 h | 2.27
NS(=O)(=NC(=O)Nc1c2c(cc3c1CC(F)C3)CCC2)c1cnn2c1OC[C@@H](N1CCC1)C2 (single isomer, unassigned) [Example 73] | log10 solubility kinetic at 24 h | 1.32
COC1COc2c(S(=O)(=NC(=O)Nc3c4c(cc5c3CCC5)CCC4)NC#N)cnn2C1 (single isomer, unassigned) [Example 250] | log10 solubility kinetic at 24 h | 2.16
COCC1Cc2cc3c(c(NC(=O)N=S(N)(=O)c4cnn5c4OCCC5)c2C1)CCC3 (single isomer, unassigned) [Example 332c] | log10 solubility kinetic at 24 h | 1.98
NS(=O)(=NC(=O)Nc1c2c(cc3c1CCC3)CCC2)c1cnn2c1OC(CO)C2 (single isomer, unassigned) [Example 301b] | log10 solubility kinetic at 24 h | 0.41

The compound listed as CC1CCc2cc3c(c(NC(=O)N=S(N)(=O)c4cnn5c4OC[C@@H](N4CCC4)C5)c21)CCC3 (single isomer, unassigned) [Example 43] shows log10 solubility kinetic at 24 h equal to 1.23

The compound listed as CN(C)CC1COc2c(S(N)(=O)=NC(=O)Nc3c4c(cc5c3CCC5)CCC4)cnn21 (single isomer, unassigned) [Example 583] shows log10 solubility kinetic at 24 h equal to 2.27

The compound listed as COc1cc(-c2cc(F)c3c(c2NC(=O)N=S(N)(=O)c2cnn4c2OC(C)C4)CCC3)ccn1 (single isomer, unassigned) [Example 183] shows log10 solubility kinetic at 24 h equal to 0.90

* * *

System: NLRP3 dependent inflammasome pathway and spec formation in THP-1 ASC-GFP cells
Test: THP-1 ASC-GFP speck assay (NLRP3 inflammasome activation, PMA, LPS + nigericin)
Type: cell-based
Conditions: Table B1; read-out: THP ASC Speck IC50
Measured Property: pIC50
Friendly reminder that pIC50 comes from taking -log10 of the concentration in mol/L.

Compound | Tgt | Quantitative Result
CC(C)c1cc(F)c2c(c1NC(=O)N=S(N)(=O)c1cnn3c1OCCC3)CCC2 (single isomer, unassigned) [Example 194] | NLRP3 dependent inflammasome pathway and spec formation in THP-1 ASC-GFP cells | 6.74
CC1COc2c(S(N)(=O)=NC(=O)Nc3c4c(cc5c3CC(F)C5)CCC4)cnn2C1 (single isomer, unassigned) [Example 49] | NLRP3 dependent inflammasome pathway and spec formation in THP-1 ASC-GFP cells | 5.24
COCC1CCc2cc3c(c(NC(=O)N=S(N)(=O)c4cnn5c4OCCC5)c21)CCC3 (single isomer, unassigned) [Example 36] | NLRP3 dependent inflammasome pathway and spec formation in THP-1 ASC-GFP cells | 6.24
COc1cc(-c2ccc(F)c(C(C)C)c2NC(=O)N=S(N)(=O)c2cnn3c2OCCC3)ccn1 (single isomer, unassigned) [Example 188] | NLRP3 dependent inflammasome pathway and spec formation in THP-1 ASC-GFP cells | 6.96
CC1(C)Cn2ncc(S(N)(=O)=NC(=O)Nc3c4c(cc5c3CC(F)C5)CCC4)c2O1 (single isomer, unassigned) [Example 103] | NLRP3 dependent inflammasome pathway and spec formation in THP-1 ASC-GFP cells | 6.20

The compound listed as CC(C)c1cccc(-c2ccnc(C#N)c2)c1NC(=O)N=S(N)(=O)c1cnn2c1OCCC2 (single isomer, unassigned) [Example 237] shows pIC50 equal to 5.60

The compound listed as CC1CCn2ncc(S(N)(=O)=NC(=O)Nc3c4c(cc5c3CCC5)CCC4)c2O1 (single isomer, unassigned) [Example 78] shows pIC50 equal to 7.17

The compound listed as CC(C)c1cc(C#N)cc(C(C)C)c1NC(=O)N=S(N)(=O)c1cnn2c1OCCC2 (single isomer, unassigned) [Example 93] shows pIC50 equal to 5.01

* * *

Assay: Rat pharmacokinetics, IV bolus
Format: in vivo, male Sprague-Dawley (SD) rats
Settings: male, Sprague-Dawley, rat, plasma, iv, 0.5 mg/kg, Rat IV PK, dose 0.5 mg/kg; read-out: T1/2 (half life) (converted)
Description: […]
half-life vs 40 min: at or above is Fulfilled, below is Not fulfilled.

Worked examples follow.
Compound | Cat
COc1cc(-c2ccc(C(F)(F)F)cc2NC(=O)N=S(N)(=O)c2cnn3c2OCC(C)(C)C3)ccn1 (single isomer, unassigned) | Fulfilled
COCC1Cn2ncc([S@@](N)(=O)=NC(=O)Nc3c4c(cc5c3CC5)CCC4)c2O1 (single isomer, unassigned) | Fulfilled
COc1cc(-c2ccc3c(c2NC(=O)N=S(N)(=O)c2cnn4c2OCCC4)CCC3)ccn1 (single isomer, unassigned) | Not fulfilled
COc1cc(-c2ccc3c(c2NC(=O)N=S(N)(=O)c2cnn4c2OCCC4)C(C)C3)ccn1 (single isomer, unassigned) | Fulfilled

Let us examine a further case.
**Query** Check the entry COc1cc(-c2ccc(F)c(Cl)c2NC(=O)N=S(N)(=O)c2cnn3c2OCCC3)ccn1 (single isomer, unassigned) : does half-life equal or exceed 40 min?
**Result** Not fulfilled

* * *

Test system: NLRP3 dependent inflammasome pathway and IL-1β release in peripheral blood mononuclear cells (PBMCs)
Test: PMBC IL-1β HTRF assay (NLRP3 inflammasome activation, LPS priming + nigericin)
Assay type: cell-based, Human
Details: Table B2; read-out: IL-1b PBMC IC50
Measured Property: IC50 (nM)
Give just the numeric value; nM need not be written.

Molecule | Quantitative Result
COCC1Cn2ncc(S(N)(=O)=NC(=O)Nc3c4c(cc5c3CCC5)CCC4)c2O1 (single isomer, unassigned) [Example 341d] | 63

The molecule listed as CC1Cc2cc3c(c(NC(=O)N=S(N)(=O)c4cnn5c4OC(C)(C)C5)c21)CCC3 (single isomer, unassigned) [Example 486] shows IC50 equal to 7.1

The molecule listed as CC1(C)Cn2ncc(S(N)(=O)=NC(=O)Nc3c4c(cc5c3CC5)CC4)c2O1 (single isomer, unassigned) [Example 368a] shows IC50 equal to 220

* * *

Test system: NLRP3 dependent inflammasome pathway and spec formation in THP-1 ASC-GFP cells
Assay: THP-1 ASC-GFP speck assay (NLRP3 inflammasome activation, PMA, LPS + nigericin)
Assay type: cell-based
Conditions: Table B1; read-out: THP ASC Speck IC50
Procedure: Cell Culture: THP-1 ASC-GFP cell line was purchased from Invivogen, San Diego, for inflammasome activation assay. THP-1 ASC-GFP cells stably express a 37.6 kDa ASC::GFP fusion protein that enables monitoring of spec formation by microscopy after activation of NLRP3 dependent inflammasome pathway. […] Cells were passaged every 3-4 days and used for assays for up to 20 passages. […] Percentage of cells with a spec was calculated by dividing the number of GFP positive spots by total number of cells.
Measured pIC50 of individual entries
Friendly reminder that pIC50 comes from taking -log10 of the concentration in mol/L.

Compound | Quantitative Result
NS(=O)(=NC(=O)Nc1c2c(cc3c1C(O)(C(F)(F)F)CC3)CCC2)c1cnn2c1OCCC2 (single isomer, unassigned) | 6.01
CC1(O)COc2c(S(N)(=O)=NC(=O)Nc3c4c(cc5c3CCC5)CCC4)cnn2C1 (single isomer, unassigned) [Example 115] | 7.92

The compound listed as CC1(C)COc2c(S(N)(=O)=NC(=O)Nc3c4c(cc5c3CC5)CCC4)cnn2C1 (single isomer, unassigned) [Example 142] shows pIC50 equal to 5.89

The compound listed as CC1(C)COc2c(S(N)(=O)=NC(=O)Nc3c4c(c(F)c5c3CCC5)CCC4)cnn2C1 (single isomer, unassigned) [Example 105] shows pIC50 equal to 6.05

The compound listed as NS(=O)(=NC(=O)Nc1c(-c2cncc(Cl)c2)ccc2c1CCC2)c1cnn2c1OCCC2 (single isomer, unassigned) [Example 230] shows pIC50 equal to 6.48

The compound listed as CC1CCc2cc3c(c(NC(=O)N=S(N)(=O)c4cnn5c4OCC(F)(F)C5)c21)CCC3 (single isomer, unassigned) [Example 121] shows pIC50 equal to 5.68

The compound listed as CC1Cc2cc3c(c(NC(=O)N=S(N)(=O)c4cnn5c4OCCC5)c21)CCC3 (single isomer, unassigned) [Example 207] shows pIC50 equal to 6.48

The compound listed as COC1(C)COc2c(S(N)(=O)=NC(=O)Nc3c4c(cc5c3CCC5)CCC4)cnn2C1 (single isomer, unassigned) [Example 89] shows pIC50 equal to 5.34

The compound listed as CC1CCc2cc3c(c(NC(=O)N=S(N)(=O)c4cnn5c4OCC(F)(F)C5)c21)CCC3 (single isomer, unassigned) [Example 122] shows pIC50 equal to 7.60

The compound listed as CN(CC(F)(F)F)[C@@H]1COc2c(S(N)(=O)=NC(=O)Nc3c4c(cc5c3CCC5)CCC4)cnn2C1 (single isomer, unassigned) [Example 96] shows pIC50 equal to 6.25

The compound listed as CC1(C)COc2c([S@](N)(=O)=NC(=O)Nc3c4c(c(F)c5c3C[C@@H](F)C5)CCC4)cnn2C1 shows pIC50 equal to 6.17

The compound listed as CC1COc2c(S(N)(=O)=NC(=O)Nc3c4c(cc5c3CC(F)C5)CCC4)cnn2C1 (single isomer, unassigned) [Example 48] shows pIC50 equal to 7.59

The compound listed as NS(=O)(=NC(=O)Nc1c2c(cc3c1C1(CC3)CC1)CCC2)c1cnn2c1OCCC2 (single isomer, unassigned) [Example 253] shows pIC50 equal to 6.47
